# Tested on: Bacteroides dorei
# Assay remarks: growth AUC relative to DMSO control (median of replicates) (fraction); higher = more growth (less inhibition), active = hit call of the paper
# Run conditions: 20 µM; 24 h
Reported metric: growth AUC

Some entries whose results are on file:
> print(dat)
                                   compound        meas.value
1                               NCP(=O)(O)O   1.03 (inactive)
2                CC1(C)CON(Cc2ccccc2Cl)C1=O  0.917 (inactive)
3  COC(=O)C(C)N(C(=O)c1ccco1)c1c(C)cccc1C (configuration not stated)   0.85 (inactive)
4                   CC(=NCc1ccc(Cl)nc1)NC#N   1.04 (inactive)
5               CC(=O)O.CCCCCCCCCCCCN=C(N)N  0.985 (inactive)

Provide growth AUC for all items below, preserving their order.
1. O=C(O)CCl
2. CS(=O)(=O)c1ccc(C(=O)C2C(=O)CCCC2=O)c([N+](=O)[O-])c1

# output
["0.982 (inactive)", "0.977 (inactive)"]
